Below, each entry is listed alongside its reported EC50.
# studySystem: Recombinant human soluble guanylate cyclase (sGC), alpha 1 / beta 1 subunits, heme-free (Homo sapiens, UniProt Q02108+Q02153)
# Construct: histidine tag (C); made in house; host or cells: Sf9 insect cells (baculovirus coinfection)
# Sequence (Q02108 whole entry partner): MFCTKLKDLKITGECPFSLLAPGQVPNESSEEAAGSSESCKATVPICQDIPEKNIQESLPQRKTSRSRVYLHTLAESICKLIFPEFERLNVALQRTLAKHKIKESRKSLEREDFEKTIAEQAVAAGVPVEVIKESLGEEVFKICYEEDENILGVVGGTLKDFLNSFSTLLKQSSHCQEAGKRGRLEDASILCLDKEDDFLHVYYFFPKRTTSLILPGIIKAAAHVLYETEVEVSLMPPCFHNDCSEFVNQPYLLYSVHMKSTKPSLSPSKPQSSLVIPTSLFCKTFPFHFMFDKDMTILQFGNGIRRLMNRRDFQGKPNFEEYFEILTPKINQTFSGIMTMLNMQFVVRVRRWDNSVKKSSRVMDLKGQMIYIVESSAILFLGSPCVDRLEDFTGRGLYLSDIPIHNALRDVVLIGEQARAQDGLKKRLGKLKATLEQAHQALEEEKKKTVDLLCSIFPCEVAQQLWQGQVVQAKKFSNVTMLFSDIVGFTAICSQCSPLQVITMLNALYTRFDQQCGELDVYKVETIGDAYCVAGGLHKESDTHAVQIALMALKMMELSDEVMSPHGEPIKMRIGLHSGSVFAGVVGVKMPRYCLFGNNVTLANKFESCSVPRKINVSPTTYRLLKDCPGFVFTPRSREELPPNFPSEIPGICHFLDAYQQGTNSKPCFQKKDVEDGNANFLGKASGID
# Sequence (Q02153 whole entry): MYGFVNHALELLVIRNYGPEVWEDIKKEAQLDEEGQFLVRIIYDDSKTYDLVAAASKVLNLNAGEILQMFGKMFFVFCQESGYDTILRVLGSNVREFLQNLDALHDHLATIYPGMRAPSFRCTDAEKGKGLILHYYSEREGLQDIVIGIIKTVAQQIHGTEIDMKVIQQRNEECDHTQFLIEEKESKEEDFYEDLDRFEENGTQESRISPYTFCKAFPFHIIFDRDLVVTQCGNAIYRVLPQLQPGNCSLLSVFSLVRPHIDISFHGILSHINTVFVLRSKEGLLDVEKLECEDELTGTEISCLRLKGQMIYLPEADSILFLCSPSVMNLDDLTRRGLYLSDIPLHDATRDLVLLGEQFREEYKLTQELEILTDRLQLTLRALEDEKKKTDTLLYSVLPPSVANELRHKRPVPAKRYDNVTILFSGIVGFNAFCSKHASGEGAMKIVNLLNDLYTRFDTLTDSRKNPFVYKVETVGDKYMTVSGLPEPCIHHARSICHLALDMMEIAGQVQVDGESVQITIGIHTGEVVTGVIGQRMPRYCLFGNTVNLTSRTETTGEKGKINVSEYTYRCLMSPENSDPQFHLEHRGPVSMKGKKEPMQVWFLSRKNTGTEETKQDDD
# assayMethodText: Molecular assay: cGMP formation by heme-free recombinant sGC (CisBio cGMP detection kit)
# Assay type: biochemical
# experimentalConditions: 300 pM heme-free sGC, 37° C., 60 min, cGMP readout; read-out: EC50 nM, Activity of Compounds in Molecular Assay
// return numeric value only (unit: nM, not printed)

[
  {
    "compound": "Cc1cc(CN2CCOCC2)ccc1COc1ccc(F)cc1-c1csc(C2CCC(C(=O)O)CC2)n1 (stereo not drawn)",
    "EC50, nM": 2500
  },
  {
    "compound": "Cc1cc(CN2CCS(=O)(=O)CC2)ccc1COc1c(C)cccc1-c1csc(N2CCC(C(=O)O)CC2)n1",
    "EC50, nM": 37
  }
]

Fill in the blank: the reported EC50 of Cc1ccc(OCc2ccc(CN3CCS(=O)(=O)CC3)cc2C)c(-c2csc(N3C4CCC3CC(C(=O)O)C4)n2)c1 (stereo not drawn) is ____. 64
